meta.source: paper PMC4899218

target: EmoA (EDTA-degrading bacterium BNC1, UniProt Q9F9T3); experiment: ITC
experimental readout: Kd (nM)
# number only, unit nM dropped from output

Request: Could you share which Kd value was measured for Cc1cc2nc3c(=O)[nH]c(=O)nc-3n(C[C@H](O)[C@H](O)[C@H](O)COP(=O)(O)O)c2cc1C ?
Response: 330
